Test system: HepG2
Assay Overview: cytotoxicity call (relative viability < 0.9)
Assay Setup: 10 µM
The campaign covered roughly 39,000 compounds. About 3,300 (8.5%) were called active. The sample as a whole holds a higher share of actives than the screen did.
Outcome field: choose from 1.0 (active), 0.0 (inactive)

{"Compound": "C[C@@H]1CN([C@@H](C)CO)S(=O)(=O)c2ccc(-c3cccnc3)cc2O[C@H]1CN(C)C(=O)c1cccc(F)c1", "Group": 0.0}

Task: Given CN(C)CC[C@H](CSc1ccccc1)Nc1ccc(S(=O)(=O)NC(=O)c2ccc(N3CCN(Cc4ccccc4-c4ccc(Cl)cc4)CC3)cc2)cc1[N+](=O)[O-] , state the outcome it received in this test.
Output: 0.0
